# target under test: mouse NMUR1-ATG (Mus musculus, UniProt O55040)
# Construct: expressed in transfected cells; host or cells: FLP-In CHO cells and HEK-293 FLP-In cells (pcDNA5)
# Sequence (O55040 1-428): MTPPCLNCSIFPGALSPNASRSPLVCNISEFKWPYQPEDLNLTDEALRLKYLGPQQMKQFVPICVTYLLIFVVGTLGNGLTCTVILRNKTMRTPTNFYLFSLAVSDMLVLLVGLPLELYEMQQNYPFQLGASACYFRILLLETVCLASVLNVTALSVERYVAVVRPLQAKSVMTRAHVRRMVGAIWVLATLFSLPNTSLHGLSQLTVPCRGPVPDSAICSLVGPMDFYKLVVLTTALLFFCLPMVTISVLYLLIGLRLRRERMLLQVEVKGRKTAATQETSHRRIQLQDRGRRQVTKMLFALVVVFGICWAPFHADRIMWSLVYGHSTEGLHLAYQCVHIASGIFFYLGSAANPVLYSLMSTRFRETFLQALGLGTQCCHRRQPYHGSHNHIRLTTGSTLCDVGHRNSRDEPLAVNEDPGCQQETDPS
# assay text: FLIPR calcium mobilization assay, mouse NMUR1-ATG cell line
# Type: cell-based
# measurement context: FLIPR
Groups on a side chain read outwards from the residue.
This section presents substances with their documented EC50 values.
Write the value in nM as a bare number.

Some substances with known EC50 results, for comparison:
Ac-C2ILQRGSGTAAVDFTKKDHTATWGRPFFLFRPRN-CONH2 (Ac-C([maleimide-(PEG)2 40 kDa])ILQRGSGTAAVDFTKKDHTATWGRPFFLFRPRN-NH2) [NMS1, C2 = Cys(PEG)240 kDa, cysteine PEGylated via the side-chain thiol with a branched PEG]: 589
H-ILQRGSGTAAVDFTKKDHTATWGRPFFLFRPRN-NH2 [NMS, reference compound]: 7

Form: Entry = Ac-C4ILQRGSGTAAVDFTKKDHTATWGRPFFLFRPRN-CONH2 (Ac-C([maleimide-PEG 40 kDa])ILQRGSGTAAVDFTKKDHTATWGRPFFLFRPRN-NH2) [NMS4, C4 = Cys(PEG)40 kDa, cysteine PEGylated via the side-chain thiol with a linear PEG] | System = mouse NMUR1-ATG (Mus musculus, UniProt O55040) | EC50 = ____ 66.2
